System: Autotaxin (Homo sapiens, UniProt Q13822) | Read-out: IC50 | Origin: multiple publications

Some solved cases for reference:
>  <Compound>
Cc1c(Sc2cccc(C(=O)O)c2)c2ccc(Cl)c(F)c2n1CC(=O)N1CC2CCCCC2C1 (stereo not shown)

>  <IC50>
≤ 500 nM

$$$$
>  <Compound>
Cc1c(Sc2cccc(C(=O)O)c2F)c2ccc(Cl)c(F)c2n1CC(=O)N1CCC(O)(c2ccccc2)C1 (stereo not shown)

>  <IC50>
≤ 500 nM

$$$$
>  <Compound>
O=C(c1cnc(NCc2cc(OC(F)(F)F)cc(C3CC3)c2)nc1)N1CCC12CCOC2 (stereo not shown)

>  <IC50>
< 100 nM

$$$$

Now turn to the next compound.
Prompt line: Tell me the measured IC50 of Cc1noc(NC(=O)c2ccc(NCc3cccc4ccccc34)nn2)c1C , please.
Response line: 114 nM

###

pIC50: −log10 of the molar value.
# literature pull: Autotaxin (Homo sapiens, UniProt Q13822) pIC50
Measured Metric: pIC50

Some molecules with known pIC50 results, for comparison:
>  <Molecule>
O=C(OCc1cc(Cl)nc(Cl)c1)N1CCC2(CC1)CN(C(=O)c1ccc3[nH]nnc3c1)C2

>  <Assay System>
Autotaxin (Homo sapiens, UniProt Q13822)

>  <Measured Metric>
pIC50

>  <Observed>
6.82

$$$$
>  <Molecule>
CCn1ccc2c(OC(C)C)cc(C(=O)N3C[C@@H]4[C@H]5CN(C(=O)c6ccc7[nH]nnc7c6)C[C@H]5[C@@H]4C3)cc21

>  <Assay System>
Autotaxin (Homo sapiens, UniProt Q13822)

>  <Measured Metric>
pIC50

>  <Observed>
8.30

$$$$
>  <Molecule>
Cc1cc(OCc2ccc(=O)[nH]n2)c(-c2cccnc2O)cc1Cl

>  <Assay System>
Autotaxin (Homo sapiens, UniProt Q13822)

>  <Measured Metric>
pIC50

>  <Observed>
5.22

$$$$
>  <Molecule>
O=C(OCc1cc(Cl)cc(Cl)c1)N1C[C@@H]2CN(C(=O)c3ccc4[nH]nnc4c3)C[C@H]2C1

>  <Assay System>
Autotaxin (Homo sapiens, UniProt Q13822)

>  <Measured Metric>
pIC50

>  <Observed>
8.10

$$$$
>  <Molecule>
O=C(OCc1cc(Cl)cc(Cl)c1)N1C[C@@H]2CN(C(=O)c3ccc4[nH]c5ccccc5c4c3)C[C@@H]2C1

>  <Assay System>
Autotaxin (Homo sapiens, UniProt Q13822)

>  <Measured Metric>
pIC50

>  <Observed>
6.59

$$$$
>  <Molecule>
O=C(OCc1ccc(C2CC2)cc1)N1CCc2cc(C(=O)N3CCc4[nH]nnc4C3)nn2CC1

>  <Assay System>
Autotaxin (Homo sapiens, UniProt Q13822)

>  <Measured Metric>
pIC50

>  <Observed>
8.15

$$$$
>  <Molecule>
Cc1cc(OCc2n[nH]c(=O)n2C)c(-c2cc(C(=O)N(C)Cc3cccs3)ccc2F)cc1Cl

>  <Assay System>
Autotaxin (Homo sapiens, UniProt Q13822)

>  <Measured Metric>
pIC50

>  <Observed>
8.15

$$$$
>  <Molecule>
CC(OCc1c[nH]nn1)C1CCN(C(=O)c2cnc(NC3Cc4ccccc4C3)nc2)CC1 (stereo not shown)

>  <Assay System>
Autotaxin (Homo sapiens, UniProt Q13822)

>  <Measured Metric>
pIC50

>  <Observed>
8.17

$$$$

1: O=C(CCc1cc(Cl)cc(Cl)c1)N1CCC2(CC1)CN(C(=O)c1ccc3[nH]c(=O)oc3c1)C2
2: NS(=O)(=O)c1ccc(C(=O)N2C[C@@H]3CN(C(=O)c4cc(OCC5CCOCC5)nc(C5CC5)c4)C[C@@]3(F)C2)c(F)c1 (relative stereo)
3: O=C(c1ccc2[nH]nnc2c1)N1C[C@@H]2[C@H](C1)[C@H]1CN(C(=O)c3ccc(-c4ccc(Cl)cc4)c(=O)[nH]3)C[C@@H]21
Prompt line: Task field, ranking: reported pIC50, descending order. Response field: labels, in requested order.
Response line: 2, 3, 1
(2: 8.10, 3: 7.70, 1: 7.21)

A: Cc1cc(OC(F)(F)F)ccc1CCC(=O)N1CC[C@@H]2CN(C(=O)c3ccc4[nH]nnc4c3)C[C@@H]2CC1
B: O=C(OCC12CC3CC(CC(C3)C1)C2)N1C[C@@H]2CN(C(=O)c3ccc4[nH]nnc4c3)C[C@@H]2C1
Prompt line: Param metric = pIC50; output whichever of A , B has the minimum value. Kindly give the label for the entry you pick.
Response line: B

###

pIC50: −log10 of the molar value.
Reported pIC50 against Autotaxin (Homo sapiens), gathered from multiple publications, appears below.
Measured Metric: pIC50

Example results:
>  <Smiles Record>
O=C(OCc1cccc(Cl)c1)N1CCC2(CC1)CN(C(=O)c1ccc3[nH]nnc3c1)C2

>  <Measured Metric>
pIC50

>  <Observed>
6.70

$$$$
>  <Smiles Record>
Cc1cc(OCc2n[nH]c(=O)n2C)c(-c2cccnc2Cl)cc1Cl

>  <Measured Metric>
pIC50

>  <Observed>
7.28

$$$$
>  <Smiles Record>
O=C(c1ccc(-c2ccc(Cl)cc2)nc1)N1C[C@@H]2[C@H](C1)[C@H]1CN(C(=O)c3ccc4[nH]nnc4c3)C[C@@H]21

>  <Measured Metric>
pIC50

>  <Observed>
7.96

$$$$
>  <Smiles Record>
O=C(O)c1ccc(C(=O)N2C[C@H]3CN(C(=O)OCc4cc(Cl)cc(Cl)c4)C[C@H]3C2)cc1

>  <Measured Metric>
pIC50

>  <Observed>
5.87

$$$$

a: O=C(OCc1ccc(OC(F)(F)F)cc1)N1C[C@@H]2CN(C(=O)c3ccc4[nH]c(=O)oc4c3)C[C@H]2C1
b: O=C(OCc1ccc(OC(F)(F)F)c(F)c1)N1C[C@@H]2CN(C(=O)c3ccc4[nH]nnc4c3)C[C@H]2C1
c: CC(C)Oc1cc(C#N)ccc1COC(=O)N1C[C@@H]2CN(C(=O)c3ccc4[nH]nnc4c3)C[C@H]2C1
Prompt line: Hi! Can you put these in order of pIC50, lowest number first? Please list the labels according to the requested order.
Response line: c, a, b
(c: 7.85, a: 8.10, b: 8.40)

1: N#Cc1ccc(COC(=O)N2C[C@@H]3CN(C(=O)c4ccc5[nH]nnc5c4)C[C@H]3C2)c(OC2CCC2)c1
2: CC(C)c1cc(Cl)c(F)cc1OCc1ccc(=O)[nH]n1
Prompt line: Please compare: 1 and 2 . Report which one has the smaller pIC50 value. Write the label of whichever entry you select.
Response line: 1

###

Literature-derived IC50 for Autotaxin (Homo sapiens) follows.
Measured Metric: IC50 (µM)

>  <Smiles Record>
Cc1cc(OCc2n[nH]c(=O)n2C)c(-c2cncn2C)cc1Cl

>  <Observed>
3.72

$$$$
>  <Smiles Record>
O=C(OCc1cc(Cl)cc(Cl)c1)N1CCC2(CC1)CN(Cc1ccc3[nH]c(=O)oc3c1)C2

>  <Observed>
0.546

$$$$
>  <Smiles Record>
NS(=O)(=O)c1ccc(C(=O)N2C[C@H]3CN(C(=O)CCc4ccc(OC(F)(F)F)cc4)C[C@@H]3C2)cc1

>  <Observed>
0.0085

$$$$
>  <Smiles Record>
CC(C)(C)C(=O)Nc1cc(C#N)ccc1COC(=O)N1C[C@@H]2CN(C(=O)c3ccc(S(N)(=O)=O)cc3)C[C@H]2C1

>  <Observed>
0.012

$$$$
>  <Smiles Record>
O=C(NC1CC2(C1)CN(C(=O)OCc1cc(F)cc(C(F)(F)F)c1)C2)c1ccc2[nH]nnc2c1

>  <Observed>
1.91

$$$$
>  <Smiles Record>
O=C(OCCC1CCCCC1)N1C[C@@H]2CN(C(=O)c3ccc4[nH]nnc4c3)C[C@@H]2C1

>  <Observed>
1.38

$$$$
>  <Smiles Record>
O=C(OCc1ccc(OC(F)(F)F)c(Cl)c1)N1CCc2nc(C(=O)N3CCc4[nH]nnc4C3)nn2CC1

>  <Observed>
0.006

$$$$
>  <Smiles Record>
O=C(OCc1cc(Cl)cc(Cl)c1)N1C[C@H]2C[C@H](Oc3ccc4[nH]c(=O)oc4c3)C[C@H]2C1

>  <Observed>
0.036

$$$$

a: CS(=O)(=O)c1cc(Cl)cc(COC(=O)N2CCC3(CC2)CN(C(=O)c2ccc4[nH]nnc4c2)C3)c1
b: O=C(/C=C/c1ccc(OC(F)F)cc1)N1C[C@@H]2CN(C(=O)c3ccc4[nH]nnc4c3)C[C@H]2C1
c: CS(=O)(=O)c1cc(COC(=O)N2CCC3(CC2)CN(C(=O)c2ccc4[nH]nnc4c2)C3)cc(C(F)(F)F)c1
d: Cc1cc(OCc2n[nH]c3ccccc23)c(-c2cc(C(=O)N3CCN(C)C(=O)C3)ccc2F)cc1Cl
e: O=C(CCc1ccc(OC(F)(F)F)c(F)c1)N1CCc2nc(C(=O)N3CCc4[nH]nnc4C3)nn2CC1
Prompt line: Put these in order: smallest IC50 first, largest last. Respond with the label ranking, as requested.
Response line: b, d, e, a, c
(b: 0.003 µM, d: 0.007 µM, e: 0.017 µM, a: 0.0505 µM, c: 0.092 µM)
